method: TOX21_p53_BLA_p4_viability: Viability Assessment in the Tox21 HCT-116 p53 Agonism Beta-lactamase Assay, Phase 4 (AID 2283597);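 also: hits lower the luminescence signal meaning cytotoxicity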
Records with an inconclusive call do not appear. The source made the active and inactive calls. The calls were made as follows: active = hit-call score of the fitted dose curve at least 0.9, where 1 is the maximum; inconclusive = response in the unintended direction; inactive = score below 0.9.
recordedMetric: AC50

{"columns": ["lineNotation", "result"],
 "data": [
  ["CO[C@@H]1[C@@H](O[C@@H]2O[C@H](C)[C@@H](O[C@H]3C[C@](C)(O)[C@@H](O)[C@H](C)O3)[C@H](N(C)C)[C@H]2O)[C@H](CC=O)C[C@@H](C)[C@H](O[C@H]2CC[C@H](N(C)C)[C@@H](C)O2)/C=C\\C=C\\C[C@@H](C)OC(=O)C[C@H]1O", "inactive"],
  ["COC(=O)c1ccccc1", "inactive"],
  ["CCOc1ccc(N=Nc2ccc(N)cc2N)cc1", "inactive"],
  ["C[C@H](CS)C(=O)N1CCC[C@H]1C(=O)O", "inactive"],
  ["O=C(O)Cn1c(C(=O)Nc2nc(-c3ccccc3Cl)cs2)cc2ccccc21", "38.9 µM (active)"],
  ["C[C@@H](NCCCc1cccc(C(F)(F)F)c1)c1cccc2ccccc12", "15.2 µM (active)"],
  ["Nc1cc(Cl)c([N+](=O)[O-])cc1O", "inactive"],
  ["COc1cc(/C=C/c2ccccc2)oc(=O)c1", "inactive"],
  ["CCOC(=O)c1c(C)n(C)c2ccc(O)cc12", "inactive"],
  ["C/C(=C(\\CCOC(=O)c1ccccc1)SS/C(CCOC(=O)c1ccccc1)=C(/C)N(C=O)Cc1cnc(C)nc1N)N(C=O)Cc1cnc(C)nc1N", "inactive"],
  ["O=C1CCc2ccc(OCCCCN3CCN(c4cccc(Cl)c4Cl)CC3)cc2N1", "inactive"],
  ["CN(C)N=Nc1ccccc1", "inactive"]
]}

###

studyTarget: Cellular tumor antigen p53 (Homo sapiens) (UniProt P04637)
Sequence (P04637 whole entry, looked up): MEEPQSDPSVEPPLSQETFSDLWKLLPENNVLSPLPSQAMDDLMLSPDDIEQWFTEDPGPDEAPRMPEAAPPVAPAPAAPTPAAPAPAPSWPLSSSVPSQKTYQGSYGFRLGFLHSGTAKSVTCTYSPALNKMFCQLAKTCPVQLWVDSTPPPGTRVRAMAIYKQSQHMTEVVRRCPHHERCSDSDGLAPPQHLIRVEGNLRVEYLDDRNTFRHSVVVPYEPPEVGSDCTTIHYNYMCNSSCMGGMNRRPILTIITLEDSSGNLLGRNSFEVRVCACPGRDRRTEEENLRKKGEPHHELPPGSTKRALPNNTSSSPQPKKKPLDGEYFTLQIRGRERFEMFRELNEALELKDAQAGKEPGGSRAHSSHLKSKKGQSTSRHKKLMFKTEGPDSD
method: TOX21_p53_BLA_p3_ratio: Tox21 HCT-116 p53 Agonism Beta-lactamase Assay, Ratio, Phase 3 (AID 2283596)
Experimental: TOX21_p53_BLA_p3 is a cell-based, single-readout assay that uses HCT116, a human intestinal cell line, […] in a 1536-well plate.TOX21_p53_BLA_p3_ratio is an assay readout measuring reporter gene via receptor activity and designed using inducible reporter (beta lactamase induction) detected with GAL4 b-lactamase reporter gene. […] This assay endpoint, TOX21_p53_BLA_p3_ratio, was analyzed in the positive analysis fitting direction relative to DMSO as the negative control and baseline of activity. […]
Records with an inconclusive call do not appear. The source made the active and inactive calls. The calls were made as follows: active = hit-call score of the fitted dose curve at least 0.9, where 1 is the maximum; inconclusive = response in the unintended direction; inactive = score below 0.9.
Labels: active, inactive

{"columns": ["lineNotation", "group"],
 "data": [
  ["CCCCCCCCOCCCN", "inactive"],
  ["CC(=NO)C(C)=NO", "inactive"],
  ["CCN(CC)CCOC(=O)c1cccnc1", "inactive"],
  ["O=S(O)(O)=S", "inactive"],
  ["CC1(C)[C@@H]2CC[C@@]1(C)[C@H](OC(=O)CSC#N)C2", "inactive"],
  ["CCOC(=O)[C@H](CCc1ccccc1)N[C@@H](C)C(=O)N1[C@H](C(=O)O)C[C@@H]2CCC[C@@H]21", "inactive"],
  ["O=C(O)C(=O)Cc1c[nH]c2ccccc12", "inactive"],
  ["COC(=O)N/N=C/c1c[n+]([O-])c2ccccc2[n+]1[O-]", "inactive"],
  ["COc1cc2c(N3CCN(C(=O)Nc4ccc(OC(C)C)cc4)CC3)ncnc2cc1OCCCN1CCCCC1", "active"]
]}
